Would you mind telling me the reported viability at 48 h, 0.01 µM of each entry?
test: Cytotoxicity test (MTT), HT-29; assay type: cell-based; conditions: human, HT-29 cells (colorectal cancer cell line); HT-29, 48 h, 0.01 μM; read-out: Cell viability (% of control)
Numbers only, in %.

Molecule | Metric | Reported result
Cc1cccc(C(C)(C)C)c1NC(=O)Nc1nc(C)c(O)c(C)c1C [Compound 16-4] | viability at 48 h, 0.01 µM | 76.6
Cc1nc(NC(=S)NC(C)C)c(C)c(C)c1O [Compound 18-2] | viability at 48 h, 0.01 µM | 87.6
Cc1nc(NC(=O)Nc2ccc(Cl)cc2)c(C)c(C)c1O [Compound 16-3] | viability at 48 h, 0.01 µM | 104

Quick request: viability at 48 h, 0.01 µM for each listed item, please.
1. Cc1nc(NC(=S)NC2CCCCC2)c(C)c(C)c1O [Compound 18-3]
2. Cc1nc(NC(=S)Nc2ccc(Cl)cc2)c(C)c(C)c1O [Compound 18-6]

Reply:
1. 90.9
2. 95.2
